Assay: Inhibition of competitive binding to cyclin-A kinase complex
pIC50: −log10 of the molar value. Starred links: 1 amine or outer side, 2 acyl side, 3 side chain; linkers in the order of their positions; H or OH if unused. Non-standard residues stand in square brackets, D forms with d. Residues, ends and D or L forms follow the SMILES beside them. X1 = CC(=O)O[C@H](c1ccccc1)[C@H](N[*:1])C(=O)[*:2]; X2 = O=C(/C(=C/c1ccccc1)N[*:1])[*:2]; Phe(ol) = N[C@H](CO)Cc1ccccc1
measure name: pIC50

Recorded results for 3 molecules are shown here.
CC[C@H](C)[C@H](NC(=O)[C@H](CC(C)C)NC(=O)[C@H](CCCN=C(N)N)NC(=O)[C@H](CCCN=C(N)N)NC(=O)[C@H](CCCCN)NC(=O)[C@H](CO)NC(=O)[C@@H](N)Cc1c[nH]cn1)C(=O)N[C@H](C(=O)O)[C@H](OC(C)=O)c1ccccc1 (H-HSKRRLI[X1]-OH)	5.88
CC[C@H](C)[C@H](NC(=O)[C@H](CC(C)C)NC(=O)[C@H](CCCN=C(N)N)NC(=O)[C@H](CCCN=C(N)N)NC(=O)[C@H](CCCCN)NC(=O)[C@H](CO)NC(=O)[C@@H](N)Cc1c[nH]cn1)C(=O)N[C@H](C(=O)O)[C@H](O)c1ccccc1	6.60
CC[C@H](C)[C@H](NC(=O)[C@H](CC(C)C)NC(=O)[C@H](CCCN=C(N)N)NC(=O)[C@H](CCCN=C(N)N)NC(=O)[C@H](CCCCN)NC(=O)[C@H](C)NC(=O)[C@@H](N)Cc1c[nH]cn1)C(=O)N[C@H](C(=O)O)[C@H](OC(C)=O)c1ccccc1 (H-HAKRRLI[X1]-OH)	6.64

[a] CC[C@H](C)[C@H](NC(=O)[C@H](CC(C)C)NC(=O)[C@H](CCCN=C(N)N)NC(=O)[C@H](CCCN=C(N)N)NC(=O)[C@H](CCCCN)NC(=O)[C@H](C)NC(=O)[C@@H](N)Cc1c[nH]cn1)C(=O)N[C@H](CO)Cc1ccccc1 (H-HAKRRLI[Phe(ol)])
[b] CC[C@H](C)[C@H](NC(=O)[C@H](CC(C)C)NC(=O)[C@H](CCCN=C(N)N)NC(=O)[C@H](CCCN=C(N)N)NC(=O)[C@H](CCCCN)NC(=O)[C@H](CO)NC(=O)[C@@H](N)Cc1c[nH]cn1)C(=O)N/C(=C\c1ccccc1)C(=O)O (H-HSKRRLI[X2]-OH)
[c] CC[C@H](C)[C@H](NC(=O)[C@H](CC(C)C)NC(=O)[C@H](CCCN=C(N)N)NC(=O)[C@H](CCCN=C(N)N)NC(=O)[C@H](CCCCN)NC(=O)[C@H](C)NC(=O)[C@@H](N)Cc1c[nH]cn1)C(=O)N[C@@H](C(=O)O)[C@@H](O)c1ccccc1
[d] CC[C@H](C)[C@H](NC(=O)[C@H](CC(C)C)NC(=O)[C@H](CCCN=C(N)N)NC(=O)[C@H](CCCN=C(N)N)NC(=O)[C@H](CCCCN)NC(=O)[C@H](CO)NC(=O)[C@@H](N)Cc1c[nH]cn1)C(=O)N[C@@H](C(=O)O)[C@@H](O)c1ccccc1
[e] CC[C@H](C)[C@H](NC(=O)[C@H](CC(C)C)NC(=O)[C@H](CCCN=C(N)N)NC(=O)[C@H](CCCN=C(N)N)NC(=O)[C@H](CCCCN)NC(=O)[C@H](C)NC(=O)[C@@H](N)Cc1c[nH]cn1)C(=O)N[C@H](C(=O)O)[C@H](O)c1ccccc1
Please order the records by their reported pIC50, lowest number first. Arrange the labels as the request states and list them.
d, b, c, e, a

====

Target: Cyclin-dependent kinase 2/cyclin A (Homo sapiens, UniProt P24941)
Assay: In vitro inhibition of CDK2-cyclin A kinase activity on retinoblastoma protein
Starred links: 1 amine or outer side, 2 acyl side, 3 side chain; linkers in the order of their positions; H or OH if unused. Non-standard residues stand in square brackets, D forms with d. Residues, ends and D or L forms follow the SMILES beside them. X1 = CC(=O)O[C@H](c1ccccc1)[C@H](N[*:1])C(=O)[*:2]; X2 = O=C(/C(=C/c1ccccc1)N[*:1])[*:2]
measure name: IC50 (nM)

CC[C@H](C)[C@H](NC(=O)[C@H](CC(C)C)NC(=O)[C@H](CCCN=C(N)N)NC(=O)[C@H](CCCN=C(N)N)NC(=O)[C@H](CCCCN)NC(=O)[C@H](C)NC(=O)[C@@H](N)Cc1c[nH]cn1)C(=O)N[C@H](C(=O)O)[C@H](OC(C)=O)c1ccccc1 (H-HAKRRLI[X1]-OH)	320

[I] CC[C@H](C)[C@H](NC(=O)[C@H](CC(C)C)NC(=O)[C@H](CCCN=C(N)N)NC(=O)[C@H](CCCN=C(N)N)NC(=O)[C@H](CCCCN)NC(=O)[C@H](CO)NC(=O)[C@@H](N)Cc1c[nH]cn1)C(=O)N[C@@H](Cc1ccccc1)C(N)=O
[II] CC[C@H](C)[C@H](NC(=O)[C@H](CC(C)C)NC(=O)[C@H](CCCN=C(N)N)NC(=O)[C@H](CCCN=C(N)N)NC(=O)[C@H](CCCCN)NC(=O)[C@H](CO)NC(=O)[C@@H](N)Cc1c[nH]cn1)C(=O)N[C@H](C(=O)O)[C@H](O)c1ccccc1
[III] CC[C@H](C)[C@H](NC(=O)[C@H](CC(C)C)NC(=O)[C@H](CCCN=C(N)N)NC(=O)[C@H](CCCN=C(N)N)NC(=O)[C@H](CCCCN)NC(=O)[C@H](C)NC(=O)[C@@H](N)Cc1c[nH]cn1)C(=O)N/C(=C\c1ccccc1)C(=O)O (H-HAKRRLI[X2]-OH)
Please order the records by their reported IC50, lowest number first. Arrange the labels as the request states and list them.
III, II, I
(III: 70 nM, II: 560 nM, I: 3400 nM)

====

Test: Inhibition of p21WAF1 peptide recruitment to CDK 2/cyclin-A complex
pIC50: −log10 of the molar value. Starred links: 1 amine or outer side, 2 acyl side, 3 side chain; linkers in the order of their positions; H or OH if unused. Non-standard residues stand in square brackets, D forms with d. Residues, ends and D or L forms follow the SMILES beside them. X3 = CC(=O)O[C@@H](c1ccccc1)[C@@H](N[*:1])C(=O)[*:2]; X1 = CC(=O)O[C@H](c1ccccc1)[C@H](N[*:1])C(=O)[*:2]; X2 = O=C(/C(=C/c1ccccc1)N[*:1])[*:2]; Phe(ol) = N[C@H](CO)Cc1ccccc1
measure name: pIC50

Recorded results for 3 compounds are shown here.
CC[C@H](C)[C@H](NC(=O)[C@H](CC(C)C)NC(=O)[C@H](CCCN=C(N)N)NC(=O)[C@H](CCCN=C(N)N)NC(=O)[C@H](CCCCN)NC(=O)[C@H](C)NC(=O)[C@@H](N)Cc1c[nH]cn1)C(=O)N[C@H](C(=O)O)[C@H](OC(C)=O)c1ccccc1 (H-HAKRRLI[X1]-OH)	6.62
CC[C@H](C)[C@H](NC(=O)[C@H](CC(C)C)NC(=O)[C@H](CCCN=C(N)N)NC(=O)[C@H](CCCN=C(N)N)NC(=O)[C@H](CCCCN)NC(=O)[C@H](CO)NC(=O)[C@@H](N)Cc1c[nH]cn1)C(=O)N[C@H](C(=O)O)[C@H](O)c1ccccc1	6.72
CC[C@H](C)[C@H](NC(=O)[C@H](CC(C)C)NC(=O)[C@H](CCCN=C(N)N)NC(=O)[C@H](CCCN=C(N)N)NC(=O)[C@H](CCCCN)NC(=O)[C@H](C)NC(=O)[C@@H](N)Cc1c[nH]cn1)C(=O)N[C@@H](C(=O)O)[C@@H](OC(C)=O)c1ccccc1 (H-HAKRRLI[X3]-OH)	6.80

[a] CC[C@H](C)[C@H](NC(=O)[C@H](CC(C)C)NC(=O)[C@H](CCCN=C(N)N)NC(=O)[C@H](CCCN=C(N)N)NC(=O)[C@H](CCCCN)NC(=O)[C@H](CO)NC(=O)[C@@H](N)Cc1c[nH]cn1)C(=O)N[C@H](CO)Cc1ccccc1
[b] CC[C@H](C)[C@H](NC(=O)[C@H](CC(C)C)NC(=O)[C@H](CCCN=C(N)N)NC(=O)[C@H](CCCN=C(N)N)NC(=O)[C@H](CCCCN)NC(=O)[C@H](C)NC(=O)[C@@H](N)Cc1c[nH]cn1)C(=O)N[C@H](C(=O)O)[C@H](O)c1ccccc1
// which entry reports the smaller pIC50, a or b ? Answer = label.
a
(a: 6.51, b: 7.55)

[A] CC[C@H](C)[C@H](NC(=O)[C@H](CC(C)C)NC(=O)[C@H](CCCN=C(N)N)NC(=O)[C@H](CCCN=C(N)N)NC(=O)[C@H](CCCCN)NC(=O)[C@H](CO)NC(=O)[C@@H](N)Cc1c[nH]cn1)C(=O)N/C(=C\c1ccccc1)C(=O)O (H-HSKRRLI[X2]-OH)
[B] CC[C@H](C)[C@H](NC(=O)[C@H](CC(C)C)NC(=O)[C@H](CCCN=C(N)N)NC(=O)[C@H](CCCN=C(N)N)NC(=O)[C@H](CCCCN)NC(=O)[C@H](C)NC(=O)[C@@H](N)Cc1c[nH]cn1)C(=O)N/C(=C\c1ccccc1)C(=O)O (H-HAKRRLI[X2]-OH)
// which entry reports the smaller pIC50, A or B ? Answer = label.
A

[a] CC[C@H](C)[C@H](NC(=O)[C@H](CC(C)C)NC(=O)[C@H](CCCN=C(N)N)NC(=O)[C@H](CCCN=C(N)N)NC(=O)[C@H](CCCCN)NC(=O)[C@H](CO)NC(=O)[C@@H](N)Cc1c[nH]cn1)C(=O)N[C@@H](C(=O)O)[C@@H](O)c1ccccc1
[b] CC[C@H](C)[C@H](NC(=O)[C@H](CC(C)C)NC(=O)[C@H](CCCN=C(N)N)NC(=O)[C@H](CCCN=C(N)N)NC(=O)[C@H](CCCCN)NC(=O)[C@H](C)NC(=O)[C@@H](N)Cc1c[nH]cn1)C(=O)N[C@@H](C(=O)O)[C@@H](O)c1ccccc1
[c] CC[C@H](C)[C@H](NC(=O)[C@H](CC(C)C)NC(=O)[C@H](CCCN=C(N)N)NC(=O)[C@H](CCCN=C(N)N)NC(=O)[C@H](CCCCN)NC(=O)[C@H](C)NC(=O)[C@@H](N)Cc1c[nH]cn1)C(=O)N[C@H](CO)Cc1ccccc1 (H-HAKRRLI[Phe(ol)])
Please order the records by their reported pIC50, lowest number first. Arrange the labels as the request states and list them.
a, b, c
(a: 6.15, b: 6.96, c: 7.74)

Measured values drawn from ChEMBL document CHEMBL1135869 for this set.
